- Test system: Candida albicans
- assay protocol: Antifungal activity against Candida albicans 7535 after 24 hrs by two-fold serial dilution method
- Type: functional
- stated conditions: Candida albicans, 7535, 24 h
Attribute: MIC
Express it in µg/mL; write the number only.

Some solved entries appear below for comparison.
compound="CN(C)C1=NC(c2ccc3cc(OCc4ccc(Cl)cc4)ccc3c2)N=C(N)N1 (stereo not given)" assay_target="Candida albicans" measurement_unit=µg/mL readout_value=1
compound="Cc1ccc(COc2ccc(C3N=C(N)NC(N(C)C)=N3)cc2)cc1 (stereo not given)" assay_target="Candida albicans" measurement_unit=µg/mL readout_value=16
compound="CN(C)C1=NC(c2ccc(/C=C/C(=O)c3ccc(Cl)cc3Cl)cc2)N=C(N)N1 (stereo not given)" assay_target="Candida albicans" measurement_unit=µg/mL readout_value=8

Let us move to another entry and its MIC.
Notebook entry, Candida albicans assay: MIC of CN(C)C1=NC(c2ccc3cc(OCC(=O)c4ccccc4)ccc3c2)N=C(N)N1 (stereo not given) = ?
32

----------
- Test system: Candida albicans
- assay protocol: Antifungal activity against Candida albicans 7535 after 24 hrs by two-fold serial dilution method
- Type: functional
- stated conditions: Candida albicans, 7535, 24 h
Listed molecules paired with reported MIC
Your answer should be a plain number; it is taken to be in µg/mL.

Would you please look over these solved cases?
molecule="CN(C)C1=NC(c2ccc3cc(OCc4ccccc4Cl)ccc3c2)N=C(N)N1 (stereo not given)" measurement_unit=µg/mL readout_value=1
molecule="COc1ccccc1C(=O)/C=C/c1ccc(C2N=C(N)NC(N(C)C)=N2)cc1 (stereo not given)" measurement_unit=µg/mL readout_value=32
molecule="CN(C)C1=NC(c2ccc(OCc3ccc(F)cc3)cc2)N=C(N)N1 (stereo not given)" measurement_unit=µg/mL readout_value=64
molecule="Cc1ccc(COc2ccc3cc(C4N=C(N)NC(N(C)C)=N4)ccc3c2)cc1 (stereo not given)" measurement_unit=µg/mL readout_value=4

Okay, now this molecule:
Report MIC for CN(C)C1=NC(c2ccc3cc(OCC(=O)c4ccc(Br)cc4)ccc3c2)N=C(N)N1 (stereo not given) please.
16

----------
- Test system: Candida albicans
- assay protocol: Antifungal activity against Candida albicans 7535 after 24 hrs by two-fold serial dilution method
- Format: functional
- stated conditions: Candida albicans, 7535, 24 h
Please assign NOT MET whenever MIC is at or above 20 µg/mL, and MET whenever it is below.

Below, 6 compounds whose answers are already recorded.
compound="CN(C)C1=NC(c2ccc(OCc3ccccc3)cc2)N=C(N)N1 (stereo not given)" label="NOT MET"
compound="CN(C)C1=NC(c2ccc3cc(OCc4cccc(Cl)c4)ccc3c2)N=C(N)N1 (stereo not given)" label=MET
compound="Cc1ccc(C(=O)/C=C/c2ccc(C3N=C(N)NC(N(C)C)=N3)cc2)cc1 (stereo not given)" label=MET
compound="CN(C)C1=NC(c2ccc3cc(OCc4ccc(Cl)cc4Cl)ccc3c2)N=C(N)N1 (stereo not given)" label=MET
compound="COc1cccc(C(=O)/C=C/c2ccc(C3N=C(N)NC(N(C)C)=N3)cc2)c1 (stereo not given)" label=MET
compound="CN(C)C1=NC(c2ccc(OCC(=O)c3ccc(Br)cc3)cc2)N=C(N)N1 (stereo not given)" label="NOT MET"

API: the following record is the query input.
Consider COc1c(N2CCNC(C)C2)c(F)cc2c(=O)c(C(=O)O)cn(C3CC3)c12 (stereo not given) [GATIFLOXACIN] . Does its MIC lie strictly below 20 µg/mL?
MET
